Test system: M14 melanoma
protocolNotes: NCI tumour cell line growth inhibition, 48 h
experimentalEndpoint: TGI

Challenge: Missing value: TGI, M14 melanoma, entry CC(=O)Oc1c2oc3cc(O)c(O)cc3c2c(OC(C)=O)c2oc3cc(O)c(O)cc3c12 . Fill in?
Response given: > 100 µM

Challenge: Missing value: TGI, M14 melanoma, entry Cc1cc(C)n(C(=O)CSc2nnc(SCC(=O)n3nc(C)cc3C)s2)n1 . Fill in?
Response given: > 100 µM

Challenge: Missing value: TGI, M14 melanoma, entry CN(C)c1ccc(C2ON=C(c3ccccc3)N2C23CC4CC(CC(C4)C2)C3)cc1 (stereo unspecified) . Fill in?
Response given: > 10 µM

Challenge: Missing value: TGI, M14 melanoma, entry O=C(NNC(=S)NCc1ccccc1)C12CC3CC(CC(C3)C1)C2 . Fill in?
Response given: > 100 µM

Challenge: Missing value: TGI, M14 melanoma, entry Cc1c(C2Cc3ccccc3N2)c2ccccc2n1C (stereo unspecified) . Fill in?
Response given: > 100 µM

Challenge: Missing value: TGI, M14 melanoma, entry COc1cccc2cc(C(=O)Nc3ccccn3)c(=N)oc12 . Fill in?
Response given: > 100 µM

----------
System: SN12C renal
protocolNotes: NCI tumour cell line growth inhibition, 48 h
Entries and their measured TGI follow.

Worked set:
>>> print(df.to_string())
                                   compound  experimentalendpoint   reading
0  C=C1CC(COc2ccc3c(C)cc(=O)oc3c2)(c2ccccc2)OC1=O (stereo not drawn)                   TGI   21.1 µM
1  Nc1ccc2c(c1)Oc1c(F)c(F)cc3c(=O)c(C(=O)O)cn-2c13                   TGI  > 100 µM
2    CN(C)CCNC(=O)c1cccc2ncc(-c3ccccc3)nc12                   TGI   42.2 µM
3  CSc1ccc(C2=NN(C(C)=O)C(c3ccc(F)cc3)C2)cc1 (stereo not drawn)                   TGI   12.6 µM
4  O=C(N/N=C(/COc1cccc(Cl)c1)N=Cc1cccnc1)c1ccncc1                   TGI  > 100 µM
5  CC(=O)N=C1N(/C=C2\C(=O)Oc3ccccc3C2=O)C(=O)/C(=C/c2ccccc2Cl)N1C                   TGI  > 100 µM

Challenge: Endpoint output: TGI of C[C@]12CC/C(=N\OCCN3CCCCC3)C=C1CCC1C2CC[C@@]2(C)C1CC[C@]2(C)O (stereo partly drawn) . Value?
Response given: 33.5 µM

Challenge: Endpoint output: TGI of Cc1cc(NNC(=O)c2ccccc2O)nc(Nc2nc3ccccc3o2)n1 . Value?
Response given: 19.1 µM

Challenge: Endpoint output: TGI of CC1=CC(C)(C)Nc2ccc(CSc3ccccc3)cc21 . Value?
Response given: 62.1 µM

Challenge: Endpoint output: TGI of COc1ccc(Nc2nc3ccccc3nc2C(=O)O)cc1OC . Value?
Response given: > 100 µM

Challenge: Endpoint output: TGI of COc1ccc(CNc2cnc3cc(N)cc(N)c3n2)cc1 . Value?
Response given: 32.9 µM

----------
Entries and their measured TGI follow.
System: LOX IMVI melanoma
protocolNotes: NCI tumour cell line growth inhibition, 48 h

Worked set:
>>> print(df.to_string())
                                   molecule  experimentalendpoint   reading
0  O=C(O)C12C3CCC(O3)C1(C(=O)O)C1CCC2O1 (centres undefined)                   TGI  > 100 µM
1  C=C1CCC2C3(C)COC(c4ccc(Cl)cc4)OC3CCC2(C)C1/C=C/C1=CCOC1=O (centres undefined)                   TGI   17.6 µM
2  CC(=O)[O-].[O-]c1c(Cl)cc(Cl)cc1/C=N/Nc1ccccn1.[Zn+2]                   TGI  > 100 µM

Challenge: Missing value: TGI, LOX IMVI melanoma, entry CC1=C2[C@H](c3ccccc3)C3C=CC2(c2ccccc23)N(C(=O)C(c2ccccc2)c2ccccc2)C1=O (some centres undefined) . Fill in?
Response given: > 100 µM

From: PubChem BioAssay (NCI)
